assay: Therapeutic index, ratio of CC50 for human C8166 cells to EC50 for wild type HIV1 3B infected in human C8166 cells; type: cell-based; settings: C8166 cells infected with wild type HIV1 3B, read-out: Ratio CC50/EC50
Simple rule here: selectivity ratio less than 3000 is fulfilled, otherwise not fulfilled.

// known answers, use as guide
Cc1ccc(C(=O)Nc2cc(Cl)ccc2OCC(=O)Nc2ccc(S(N)(=O)=O)cc2C)cc1 : not fulfilled
Cc1cc(C)cc(C(=O)Nc2cc(Cl)ccc2OCC(=O)Nc2ccc(S(N)(=O)=O)cc2C)c1 : not fulfilled
Cc1cc(S(N)(=O)=O)ccc1NC(=O)COc1ccc(Cl)cc1NC(=O)c1cc(Cl)cc(C#N)c1 : not fulfilled

I wonder whether Cc1cc(S(N)(=O)=O)ccc1NC(=O)COc1ccc(Cl)cc1NC(=O)c1ccc2ccccc2c1 has selectivity ratio below 3000. Can you tell? fulfilled

I wonder whether Cc1cc(S(N)(=O)=O)ccc1NC(=O)COc1ccc(Cl)cc1NC(=O)/C=C/c1ccccc1 has selectivity ratio below 3000. Can you tell? fulfilled

I wonder whether Cc1cc(S(N)(=O)=O)ccc1NC(=O)COc1ccc(Cl)cc1NC(=O)c1cc(Br)cc(Br)c1 has selectivity ratio below 3000. Can you tell? fulfilled

I wonder whether Cc1cc(S(N)(=O)=O)ccc1NC(=O)COc1ccc(Cl)cc1NC(=O)c1cc(Cl)cc(Cl)c1 has selectivity ratio below 3000. Can you tell? not fulfilled

I wonder whether Cc1cc(S(N)(=O)=O)ccc1NC(=O)COc1ccc(Cl)cc1NC(=O)c1cccc(Cl)c1 has selectivity ratio below 3000. Can you tell? not fulfilled

I wonder whether Cc1cc(S(N)(=O)=O)ccc1NC(=O)COc1ccc(Cl)cc1NC(=O)c1cc(Cl)ccc1Cl has selectivity ratio below 3000. Can you tell? not fulfilled

I wonder whether Cc1cc(S(N)(=O)=O)ccc1NC(=O)COc1ccc(Cl)cc1NC(=O)c1ccc(Cl)cc1Cl has selectivity ratio below 3000. Can you tell? not fulfilled

I wonder whether Cc1cn([C@H]2C[C@H](N=[N+]=[N-])[C@@H](CO)O2)c(=O)[nH]c1=O has selectivity ratio below 3000. Can you tell? not fulfilled

I wonder whether Cc1cc(S(N)(=O)=O)ccc1NC(=O)COc1ccc(Cl)cc1NC(=O)c1cccc(C(F)(F)F)c1 has selectivity ratio below 3000. Can you tell? fulfilled

I wonder whether Cc1ccc(C)c(C(=O)Nc2cc(Cl)ccc2OCC(=O)Nc2ccc(S(N)(=O)=O)cc2C)c1 has selectivity ratio below 3000. Can you tell? not fulfilled

I wonder whether Cc1cccc(C(=O)Nc2cc(Cl)ccc2OCC(=O)Nc2ccc(S(N)(=O)=O)cc2C)c1 has selectivity ratio below 3000. Can you tell? not fulfilled

I wonder whether Cc1cc(S(N)(=O)=O)ccc1NC(=O)COc1ccc(Cl)cc1NC(=O)c1cc(Cl)cc(Br)c1 has selectivity ratio below 3000. Can you tell? fulfilled

I wonder whether Cc1cc(S(N)(=O)=O)ccc1NC(=O)COc1ccc(Cl)cc1NC(=O)c1ccccc1 has selectivity ratio below 3000. Can you tell? not fulfilled

* * *

system: Human immunodeficiency virus 1; assay: Antiviral activity against HIV1 A17 harbouring RT K103N/Y181C mutant infected in human C8166 cells assessed as protection against virus-induced cytopathic effect after 3 days by syncytium reduction assay; format: functional, organism-based; conditions: Human immunodeficiency virus 1, A17, C8166, 72 h
pEC50: −log10 of the molar value.
Returns one of 1 or 0; 1 when pEC50 is >= 5.

// known answers, use as guide
Cc1cc(S(N)(=O)=O)ccc1NC(=O)COc1ccc(Cl)cc1NC(=O)c1ccccc1C : 1
Cc1ccc(C(=O)Nc2cc(Cl)ccc2OCC(=O)Nc2ccc(S(N)(=O)=O)cc2C)c(C)c1 : 1
Cc1ccc(C(=O)Nc2cc(Cl)ccc2OCC(=O)Nc2ccc(S(N)(=O)=O)cc2C)cc1C : 1
Cc1cc(S(N)(=O)=O)ccc1NC(=O)COc1ccc(Cl)cc1NC(=O)c1cc(Cl)ccc1Cl : 1
Cc1cc(S(N)(=O)=O)ccc1NC(=O)COc1ccc(Cl)cc1NC(=O)Cc1c(Cl)cccc1Cl : 0
Cc1cc(S(N)(=O)=O)ccc1NC(=O)COc1ccc(Cl)cc1NC(=O)c1cccc(C(F)(F)F)c1 : 0
Cc1cc(S(N)(=O)=O)ccc1NC(=O)COc1ccc(Cl)cc1NC(=O)c1ccccc1[N+](=O)[O-] : 1
Cc1cc(S(N)(=O)=O)ccc1NC(=O)COc1ccc(Cl)cc1NC(=O)c1cccc2ccccc12 : 0

For the next question, use this molecule.
Form field: pEC50 at least 5? Entry: Cc1cc(S(N)(=O)=O)ccc1NC(=O)COc1ccc(Cl)cc1NC(=O)c1cc(Cl)cc(Cl)c1 1
